target: Human serum albumin (HSA) (Homo sapiens, UniProt P02768); construct: purchased Daicel, Tokyo, Japan H13H-2433; assay: Human serum albumin binding via high performance affinity chromatography (HPAC); assay type: in vitro ADME; conditions: Chiralpak HSA column, n = 1
Sequence (P02768 25-609): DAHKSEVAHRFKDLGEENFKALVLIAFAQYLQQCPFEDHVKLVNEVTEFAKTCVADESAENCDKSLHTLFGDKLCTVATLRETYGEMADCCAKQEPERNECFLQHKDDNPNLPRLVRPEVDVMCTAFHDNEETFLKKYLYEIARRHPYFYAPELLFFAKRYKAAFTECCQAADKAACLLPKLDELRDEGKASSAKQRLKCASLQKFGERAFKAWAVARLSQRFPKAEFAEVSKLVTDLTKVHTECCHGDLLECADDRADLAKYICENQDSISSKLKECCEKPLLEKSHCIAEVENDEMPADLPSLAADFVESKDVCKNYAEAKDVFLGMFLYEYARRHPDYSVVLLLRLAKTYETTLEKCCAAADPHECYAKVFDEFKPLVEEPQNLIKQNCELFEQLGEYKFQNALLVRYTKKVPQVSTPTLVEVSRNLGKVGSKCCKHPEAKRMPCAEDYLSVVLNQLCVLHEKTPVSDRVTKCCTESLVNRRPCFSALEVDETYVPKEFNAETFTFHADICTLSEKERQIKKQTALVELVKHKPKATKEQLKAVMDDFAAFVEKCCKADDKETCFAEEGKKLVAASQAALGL
HSA binding by entry:
Reply with just the number (in %).

## Task Fill in: HSA binding of CCCC[C@@H](C(=O)N[C@@H](CC(=O)O)C(=O)N[C@@H](Cc1cccc2ccccc12)C(N)=O)N(C)C(=O)[C@H](Cc1c[nH]c2ccccc12)NC(=O)CCOCCOCCOCCOCCNC(=O)CC[C@@H](NC(=O)CCOCCOCCOCCOCCOCCNC(=O)CC[C@@H](NC(=O)[C@@H](CNC(=O)c1ccc([Si](F)(C(C)(C)C)C(C)(C)C)cc1)NC(=O)CN1CCN(CC(=O)O)CCN(CC(=O)O)CCN(CC(=O)O)CC1)C(=O)O)C(=O)O [[^nat/177Lu]Lu-DOTA-rhCCK-68, DOTA-D-Dap(p-SiFA)-D-γ-Glu-(PEG)4-B, metal not drawn] is ___
## Result 91.2

## Task Fill in: HSA binding of CCCC[C@@H](C(=O)N[C@@H](CC(=O)O)C(=O)N[C@@H](Cc1cccc2ccccc12)C(N)=O)N(C)C(=O)[C@H](Cc1c[nH]c2ccccc12)NC(=O)CCOCCOCCOCCOCCNC(=O)CC[C@@H](NC(=O)CCOCCOCCOCCOCCOCCOCCOCCOCCNC(=O)CC[C@@H](NC(=O)[C@@H](CNC(=O)C[N+](C)(C)Cc1ccc([Si](F)(C(C)(C)C)C(C)(C)C)cc1)NC(=O)CN1CCN(CC(=O)O)CCN(CC(=O)O)CCN(CC(=O)O)CC1)C(=O)O)C(=O)O [[^nat/177Lu]Lu-DOTA-rhCCK-71, DOTA-D-Dap(SiFAlin)-D-γ-Glu-(PEG)7-B, metal not drawn] is ___
## Result 89.1

## Task Fill in: HSA binding of CCCC[C@@H](C(=O)N[C@@H](CC(=O)O)C(=O)N[C@@H](Cc1cccc2ccccc12)C(N)=O)N(C)C(=O)[C@H](Cc1c[nH]c2ccccc12)NC(=O)CCOCCOCCOCCOCCNC(=O)CC[C@@H](NC(=O)CCOCCOCCOCCOCCOCCOCCOCCOCCNC(=O)CC[C@@H](NC(=O)[C@@H](CNC(=O)c1ccc([Si](F)(C(C)(C)C)C(C)(C)C)cc1)NC(=O)CN1CCN(CC(=O)O)CCN(CC(=O)O)CCN(CC(=O)O)CC1)C(=O)O)C(=O)O [[^nat/177Lu]Lu-DOTA-rhCCK-70, metal not drawn] is ___
## Result 89.3

----------
target: Human serum albumin (HSA) (Homo sapiens); construct: purchased Daicel, Tokyo, Japan H13H-2433; test: Human serum albumin binding via high performance affinity chromatography (HPAC); assay type: in vitro ADME; conditions: Chiralpak HSA column, n = 1
property: HSA binding

## Task Param readout = HSA binding; param system = Human serum albumin (HSA) (Homo sapiens); param query = CCCC[C@@H](C(=O)N[C@@H](CC(=O)O)C(=O)N[C@@H](Cc1cccc2ccccc12)C(N)=O)N(C)C(=O)[C@H](Cc1c[nH]c2ccccc12)NC(=O)CCOCCOCCOCCOCCNC(=O)CC[C@@H](NC(=O)CCOCCOCCOCCOCCOCCOCCOCCOCCOCCOCCOCCOCCNC(=O)CC[C@@H](NC(=O)[C@@H](CNC(=O)c1ccc([Si](F)(C(C)(C)C)C(C)(C)C)cc1)NC(=O)CN1CCN(CC(=O)O)CCN(CC(=O)O)CCN(CC(=O)O)CC1)C(=O)O)C(=O)O [[^nat/177Lu]Lu-DOTA-rhCCK-76, DOTA-D-Dap(p-SiFA)-D-γ-Glu-(PEG)11-B, metal not drawn] ; response: value
## Result 86.2%
